Data credit: patent US20140322218A1

Target: T1, muCDH19(44-770), Flag-tagged, on 293T cells (mouse)
T1 construct: also called Mu EC1-5
T1 chain: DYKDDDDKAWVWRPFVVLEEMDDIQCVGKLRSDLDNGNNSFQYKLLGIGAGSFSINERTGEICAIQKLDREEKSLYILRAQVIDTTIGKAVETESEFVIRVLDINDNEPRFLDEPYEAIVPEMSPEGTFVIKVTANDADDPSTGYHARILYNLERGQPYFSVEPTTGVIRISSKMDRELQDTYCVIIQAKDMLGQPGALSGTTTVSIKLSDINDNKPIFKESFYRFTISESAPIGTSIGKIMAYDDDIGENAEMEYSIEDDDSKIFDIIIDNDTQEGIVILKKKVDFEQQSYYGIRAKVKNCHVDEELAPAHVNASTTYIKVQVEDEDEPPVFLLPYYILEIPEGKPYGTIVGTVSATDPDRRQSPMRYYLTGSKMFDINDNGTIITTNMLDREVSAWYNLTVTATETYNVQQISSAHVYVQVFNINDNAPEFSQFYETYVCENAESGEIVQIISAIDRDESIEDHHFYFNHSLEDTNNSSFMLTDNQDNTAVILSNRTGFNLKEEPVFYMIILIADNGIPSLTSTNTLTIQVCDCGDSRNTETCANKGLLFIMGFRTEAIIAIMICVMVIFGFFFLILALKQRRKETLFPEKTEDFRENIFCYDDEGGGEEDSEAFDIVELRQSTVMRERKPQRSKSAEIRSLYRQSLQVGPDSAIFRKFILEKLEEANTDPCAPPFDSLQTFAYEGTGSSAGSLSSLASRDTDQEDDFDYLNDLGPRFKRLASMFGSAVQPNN
Assay: FACS, transfected 293T
outcome.measure: binding result

- binder: "hu anti-<huCDH19> 23A10.3 (1-474)(L92Q) VH::huIgG1z / 23A10.3 (1-231)(C42S) VL::huLLC-C2 (Ab ID 14077) (antibody, V domains shown, Engineered variant of 23A10) VH: QVQLVESGGGVVQPGRSLRLSCAASGFTFSRYGIHWVRQAPGKGLEWVAVIWYDGSNKYYADSVKGRFTISRDNSKNTLYLQMNSLRAEDSAVYYCARRAGIPGTTGYYYGMDVWGQGTTVTVSS VL: SYELTQPPSVSVSPGQTASITCSGDRLGEKYVSWYQQKPGQSPILVIYQDNKWPSGIPERFSGSNSGNTATLTISGTQAMDEADYYCQAWDSSTVVFGGGTKLTVLG"
  observed.result: "binds"
- binder: "anti-CDH19 antibody 2G6 (Ab ID 13588) (antibody, human IgG1, lambda, V domains shown) VH: QVQLVESGGGVVQPGRSLRLSCAASGFTFSSYGMHWVRQAPGKGLEWVAFIWYDGSNKYYADSVKDRFTISRDNSKNTLYLQMKSLRAEDTAVYYCARRAGIIGTIGYYYGMDVWGQGTTVTVSS VL: SYELTQPPSVSVSPGQTASITCSGDRLGEKYTCWYQQRPGQSPLLVIYQDTKRPSGIPERFSGSNSGNTATLTISGTQAMDEADYYCQAWDSSTVVFGGGTKLTVLG"
  observed.result: "binds"
